- System: c-Abl (mouse);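 note: 11-residue human phosphosite peptides and single-mutation variants displayed on the E. coli surface, counted by deep sequencing, each peptide's frequency after selection divided by its frequency in the unselected input library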;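 note: frequency after pTyr selection over input frequency; kinase dosed for 20-30% of maximal phosphorylation in three min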
- assay-explanation: phosphorylation enrichment, bacterial display (enrichment ratio); higher = better substrate or ligand; peptides without Tyr show the background
readout-label: phosphorylation enrichment
One number for each entry.

biopolymer-sequence: FLAVEYHKPHI [IDS_Y225_G224E]
phosphorylation enrichment: 1.6
--
biopolymer-sequence: PTDGVYVMPTV [MYO7A_Y1668_S1666G]
phosphorylation enrichment: 4.76
--
biopolymer-sequence: NKVQFYIPDMN [NCR1_Y84_K82Q]
phosphorylation enrichment: 0.744
--
biopolymer-sequence: HLTLVYGGIFL [FBP1_Y259_R255L]
phosphorylation enrichment: 1.4
--
biopolymer-sequence: LITTPYIGFLG [KCNQ1_Y267_L266P]
phosphorylation enrichment: 0.528
--
biopolymer-sequence: FAKSVYWENTL [NUP107_Y296_YF]
phosphorylation enrichment: 0.638
--
biopolymer-sequence: NYYDTCIKTCL [IQGAP2_Y1445_Y1445C]
phosphorylation enrichment: 0.894
--
biopolymer-sequence: KANEYYPVVII [ADAMTS18_Y765_L769I]
phosphorylation enrichment: 2.4

I need phosphorylation enrichment for every entry listed below, if you could help.
1. ALAAPYVLYPS [CEFIP_Y1332_G1337S]
2. TLMNAYSSRCH [KIF11_Y231_S235C]
3. RGKDSYETSQL [SPP1_Y225]

0.583
0.738
0.313

I need phosphorylation enrichment for every entry listed below, if you could help.
1. ASPKSYPSQKH [CAP2_Y316_T311A]
2. KNRDVSSSDFF [USP24_Y2134_Y2134S_YF]

1. 0.484
2. 0.583
